In this section we review reported GI50 values for a set of compounds.
tested on: ACHN; test: NCI tumour cell line growth inhibition, 48 h
Activity calls are given as the source filed them. Rule as the data show it: active = GI50 up to about 1.1 µM and inactive = higher.

Sample records with GI50:
CCOC1OC(COC(=O)C(C)(C)C)C(O)CC1n1cc(C)c(=O)[nH]c1=O (centres undefined): > 100 µM (inactive)
O=C(Cn1c(-c2ccccc2)cc2ccccc21)N1CCCC1: > 100 µM (inactive)
CSCSCC(CO)NC(=O)/C=C/c1c(C)nc(O)nc1O (centres undefined): > 100 µM (inactive)
Cc1ccc(/C(C#N)=C/c2cccc([N+](=O)[O-])c2)cc1: > 100 µM (inactive)
COC(=O)C(Cc1nc2ccc(Cl)cc2nc1O)C(=O)C(=O)Nc1cc(C)ccc1C (centres undefined): > 100 µM (inactive)
O=C1CN2C(Cl)(Cl)C2(c2ccccc2)c2cc(Cl)ccc2N1CC1CC1 (centres undefined): 23.8 µM (inactive)
CCN(CC)C(=O)c1cc(OC(C)C)ccc1-c1c(C)cc(OC(C)C)c(OC)c1OC: 57.8 µM (inactive)
CCn1c(=O)nc2n(-c3ccccc3)c3ccccc3nc-2c1=O: 4.21 µM (inactive)

Let me know recorded GI50 for C=CCN(N=O)C(=O)NCCCC(NC(C)=O)C(=O)NCc1ccccc1 (centres undefined) , thanks.
> 100 µM (inactive)

Let me know recorded GI50 for CCCCSc1n/c(=C\c2ccc(N(C)C)cc2)c2nnnn12 , thanks.
> 100 µM (inactive)

Let me know recorded GI50 for CSCCC(C(=O)O)N(CC1(O)OCC(O)C(O)C1O)N=O (centres undefined) , thanks.
> 100 µM (inactive)

Let me know recorded GI50 for C=CCNC(=O)N(CCC)CCCCC(NC(C)=O)C(=O)NCc1ccccc1 (centres undefined) , thanks.
> 100 µM (inactive)

Let me know recorded GI50 for CCOC(=O)c1c(C)[n+]([O-])c2cc(Cl)c(Cl)cc2[n+]1[O-] , thanks.
29.3 µM (inactive)

Let me know recorded GI50 for Cc1cccc2c(O)cc(=O)oc12 , thanks.
> 100 µM (inactive)
